- SYSTEM_NAME: T1, human TSLP (human, UniProt Q969D9 29-159)
- T1 construct: also called hTSLP; rhTSLP
- PROCEDURE_DETAILS: SPR
Collected koff values appear next to each entry.
REPORTED_METRIC: koff (s⁻¹)

BINDER	UNIT	REPORTED_RESULT
BDG38.106 (antibody, V domains shown, IgG1) VH: QMQLVESGGGVVQPGRSLTLSCAASGFEFRTYGMHWVRQAPGKGLEWVAVIWDDGSNTVYADSVKGRFTITRDNSKNTLNLQMNSLRVEDTAVYYCVRAPQWYLTAEAFDLWGQGTMVTVSS VL: SYILTQPPSVSVAPGQTATITCGGNLIGSRLVHWYQQKPGQAPVLVIYDDSDRPSRIPERFSGSNIGNTATLTIEDVEEGDEADYYCQVWDHYSDHMVFGGGTKLTVL	s⁻¹	0.000257
BDG38.094 (antibody, V domains shown, IgG1) VH: QMQLVESGGGVVQPGRSLRLSCAASGFAFRTYGMHWVRQAPGKGLEWVAVIWDDGSNTHYADSVKGRFTITRDNSKNTLNLQMNSLRAEDTAVYYCVRAPQWYLTAEAFDLWGQGTMVTVSS VL: SYVLTQPPSVSVAPGETASITCGGNLIGAYLVHWYQQKPGQAPLLVIYDDVDRPARIPERFSGSNSGNTATLTISRVEAGDEADYYCQVWDHNSNHMVFGGGTKLTVL	s⁻¹	1.82e-07
BDG38.091 (antibody, V domains shown, IgG1) VH: QMQLVESGGGVVQPGRSLTLSCAASGFEFRTYGMHWVRQAPGKGLEWLGVIWYDGSNTHYADSVKGRFTITRDNSKNTLNLQMNSLRVEDTAVYYCVRAPQWYLTAEAFDLWGQGTMVTVSS VL: SYILTQPPSVSVAPGETATITCGGNLIGSRLVHWYQQKPGQAPVLVIYDDSDRPSRIPERFSGSNIGNTATLTISDVEAGDEADYYCQVWDHYSNHYVFGGGTKLTVL	s⁻¹	8.67e-05

Where do these numbers come from? They come from patent US20240059769A1.
